Origin of values: a melting point compilation (Tetko et al.)

Listing of entries alongside the reported melting point.

Solved entries:
{"TEST_SMILES": "NS(=O)(=O)c1ccccc1-c1ccccc1", "melting point": "116 to 118 °C"}
{"TEST_SMILES": "O=C(O)c1ccc(Cl)c(S(=O)(=O)N2CCCC2)c1", "melting point": "239 to 241 °C"}
{"TEST_SMILES": "COc1ccc(S(=O)(=O)N2CCCCCC2)cc1C(=O)O", "melting point": "114 to 116 °C"}
{"TEST_SMILES": "Cn1c(S)nnc1-c1ccco1", "melting point": "179 to 181 °C"}
{"TEST_SMILES": "CCOC(=O)c1[nH]c(C)c(C(=O)CCl)c1C", "melting point": "159 to 161 °C"}
{"TEST_SMILES": "O=C1CCOc2cc3c(cc21)OCO3", "melting point": "96 to 98 °C"}

Now let's try a different one.
Quick one: melting point for O=C(O)c1ccccc1NS(=O)(=O)c1ccc(Br)cc1 ?
225 to 227 °C

----------
Listing of entries alongside the reported melting point.

{"MOLECULE": "Cc1c(Br)cc(C(=O)O)cc1[N+](=O)[O-]", "melting point": "183 to 185 °C"}

Now let's try a different one.
Quick one: melting point for N#Cc1cnn(CCO)c1N ?
156 to 158 °C

----------
PROPERTY_NAME: melting point

{"COMPOUND": "NS(=O)(=O)c1c(Cl)cccc1[N+](=O)[O-]", "READING": "143 to 145 °C"}
{"COMPOUND": "COCC(=O)c1cccc([N+](=O)[O-])c1", "READING": "105 to 107 °C"}
{"COMPOUND": "Cc1csc(N2CCCC(C(=O)O)C2)n1 (configuration not stated)", "READING": "147 to 149 °C"}
{"COMPOUND": "O=C(O)C1CCN(c2ncccn2)CC1", "READING": "94 to 96 °C"}
{"COMPOUND": "N#Cc1cc(F)ccc1-n1ccc(N)n1", "READING": "128 to 130 °C"}

Quick one: melting point for O=C(O)c1cccc(CS(=O)(=O)c2ccccc2)c1 ?
194 to 196 °C

Quick one: melting point for O=C(c1ccccc1)c1cc(Br)ccc1F ?
67 to 69 °C

Quick one: melting point for CC(=O)c1ccc(NS(C)(=O)=O)cc1 ?
155 to 157 °C

Quick one: melting point for N#Cc1c(-c2ccccc2)nc(S)[nH]c1=O ?
327 to 329 °C

Quick one: melting point for COc1ccc([N+](=O)[O-])cc1CN=[N+]=[N-] ?
33 to 35 °C

Quick one: melting point for CC(Oc1cccc(C#N)c1)C(=O)O (configuration not stated) ?
110 to 112 °C

Quick one: melting point for COC(=O)c1cc2ccccc2cc1N ?
99 to 101 °C

Quick one: melting point for O=C(N/N=C/c1c(O)ccc2ccccc12)c1ccncc1 ?
266 to 268 °C

Quick one: melting point for c1ccc2sc(NCCCN3CCOCC3)nc2c1 ?
182 to 184 °C

Quick one: melting point for NCC1CC(=O)Nc2ccccc21 (configuration not stated) ?
142 to 144 °C

Quick one: melting point for CC1(c2cccc(N)c2)NC(=O)NC1=O (configuration not stated) ?
78 to 80 °C

Quick one: melting point for Cc1cc(N)ccc1N1C(=O)CCC1=O ?
167 to 169 °C

Quick one: melting point for CCCCCCc1nc(S)c2c(=O)n(C)c(=O)n(CCC)c2n1 ?
172 to 174 °C

Quick one: melting point for Fc1cccc2[nH]c(C3CCNCC3)nc12 ?
229 to 231 °C

Quick one: melting point for O=[N+]([O-])c1c[nH]nc1-c1ccncc1 ?
216 to 218 °C

Quick one: melting point for CC(=O)Nc1cccc(C(C)O)c1 (configuration not stated) ?
103 to 105 °C

Quick one: melting point for NC(CCc1ccccc1)=NO ?
40 to 42 °C

Quick one: melting point for CC1CCN(S(=O)(=O)N2CCNCC2)CC1 ?
61 to 63 °C

Quick one: melting point for CC(C)CC(=O)NC(C(=O)O)C(C)C (configuration not stated) ?
186 to 188 °C

Quick one: melting point for O=S(=O)(O)C1CCCNC1 (configuration not stated) ?
304 to 306 °C

Quick one: melting point for CSc1ncc[nH]1 ?
129 to 131 °C

Quick one: melting point for O=C(O)Cn1cccnc1=O ?
211 to 213 °C
